# credit: PubChem BioAssay

assay: small-molecule binders of probe aNOTCH2, primary screen, biochemical, small-molecule microarray, 635/667 nm fluorescence (AID 1121); conditions: higher = more signal;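 further: score merges feature fluorescence read at 667 nm with its signal to noise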
measure: composite z-score

Inquiry: Can you look up the measured composite z-score of CC(C)(C)OC(=O)CC[C@@]12N=C(c3ccc(OCCCO)cc3)O[C@@H]1c1ccccc1CN(Cc1ccccc1)C2=O for me?
Reply text: -0.11

Inquiry: Can you look up the measured composite z-score of C=CC[C@@H](OC(=O)Nc1ccc(SC)cc1)c1ccc(OCCO)cc1 for me?
Reply text: -0.179

Inquiry: Can you look up the measured composite z-score of C=C[C@H](OC)[C@@H](OC(=O)Nc1ccc(OC)cc1)c1ccc(OC)c(O)c1 for me?
Reply text: -0.181

Inquiry: Can you look up the measured composite z-score of COCCCNC(=O)[C@@]1(CCS(=O)(=O)c2ccccc2)N=C(c2ccc(OCCCO)cc2)O[C@H]1c1ccccc1CN=[N+]=[N-] for me?
Reply text: 0.0763

Inquiry: Can you look up the measured composite z-score of O=C1O[C@@H](c2ccccc2)[C@@H](c2ccccc2)N2[C@@H](c3ccc(OCCO)cc3)[C@]3(C(=O)Nc4ccc(C#CC5(O)CCCCCC5)cc43)[C@@H](C(=O)NC[C@H](O)c3ccccc3)[C@H]12 for me?
Reply text: 0.0278

Inquiry: Can you look up the measured composite z-score of CCCC[C@@H](O)C1=C(C)C[C@H]2C(=O)N(C)C(=O)[C@H]2[C@H]1CO for me?
Reply text: -0.112

Inquiry: Can you look up the measured composite z-score of COCCOC(=O)N1C(=O)[C@@]2(c3ccccc31)[C@H](C(=O)Nc1nc3ccccc3s1)[C@H]1C(=O)O[C@H](c3ccccc3)[C@H](c3ccccc3)N1[C@@H]2c1ccc(O)cc1 for me?
Reply text: -0.0551

* * *

For each entry below, report its composite z-score value.
experiment: small-molecule microarray binders of probe aNog, primary screen, biochemical, biotinylated probe, 635/667 nm fluorescence (AID 1115); conditions: higher = more signal;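 further: probe is biotinylated aNog protein used at 0.15 µg/mL for 1 h at 4 C; z-score combines 667 nm fluorescence of each spot with its signal to noise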
Would you mind answering with just the numeric figure?

Inquiry: Can you look up the measured composite z-score of CCCCCN1CC=CC23O[C@@H]4/C=C\CCC(C)OC(=O)C4[C@H]2C(=O)N(CCCO)[C@@H]3C1=O (stereo partly drawn) for me?
Reply text: -0.0511

Inquiry: Can you look up the measured composite z-score of CCN(CC)c1ccc(N2CC=CC34O[C@@H]5C=CCOC(=O)[C@@H]5[C@H]3C(=O)N(C(CO)C(C)C)[C@@H]4C2=O)cc1 (stereo partly drawn) for me?
Reply text: -0.481

Inquiry: Can you look up the measured composite z-score of COC(=O)[C@@]1(CCC(=O)OC(C)(C)C)COC(c2ccc(OCCCO)cc2)=N1 for me?
Reply text: 0.424

Inquiry: Can you look up the measured composite z-score of O=c1n(-c2ccccc2)c(=O)n2n1CC(COc1ccccc1)=C1[C@@H](CCc3ccccc3)OB(O)C[C@@H]12 for me?
Reply text: -0.118

Inquiry: Can you look up the measured composite z-score of C=CCC(OC(C)=O)[C@@H]1[C@@H](N(Cc2ccc(-c3cccc(C(F)(F)F)c3)o2)C(=O)c2ccc(-c3ccccc3)cc2)c2cc(OCCCO)ccc2N1C(=O)Cc1ccc(OC)cc1 (stereo partly drawn) for me?
Reply text: -0.0086

Inquiry: Can you look up the measured composite z-score of CC(CO)N1C(=O)[C@@H]2C3C(=O)OCCC/C=C\[C@H]3OC23C=CCN(Cc2ccccc2)C(=O)[C@@H]13 (stereo partly drawn) for me?
Reply text: -0.036

Inquiry: Can you look up the measured composite z-score of CC(C)C(CO)N1C(=O)[C@@H]2[C@H]3C(=O)OCC=C[C@H]3OC23C=CCN(Cc2ccccc2)C(=O)[C@@H]13 (stereo partly drawn) for me?
Reply text: 0.0342

Inquiry: Can you look up the measured composite z-score of CC(C)C[C@@H]1NC(=O)[C@@]23C(=O)N[C@@H](Cc4ccccc4)C2[C@H](C)[C@@]2(C)O[C@H]2C3/C=C/C/C=C\CNC(=O)[C@H](Cc2ccccc2)NC1=O (stereo partly drawn) for me?
Reply text: -0.194

Inquiry: Can you look up the measured composite z-score of COc1ccc(/C=C/C(=O)c2cccc(OCC(=O)OC(C)(C)C)c2)cc1 for me?
Reply text: -0.5

Inquiry: Can you look up the measured composite z-score of CC(C)C(CO)N1C(=O)[C@@H]2C3C(=O)OCCC/C=C\[C@H]3OC23C=CCN(C(C)C)C(=O)[C@@H]13 (stereo partly drawn) for me?
Reply text: 0.0599

Inquiry: Can you look up the measured composite z-score of CCCC[C@@H](O)C1=C(C)C[C@H]2C(=O)N(C)C(=O)[C@H]2[C@H]1CO for me?
Reply text: 0.185

Inquiry: Can you look up the measured composite z-score of COc1ccc(C#Cc2ccc3c(c2)[C@]2(C(=O)N3)[C@H](c3ccc(O)cc3)N3[C@H](c4ccccc4)[C@H](c4ccccc4)OC(=O)[C@H]3[C@@H]2C(=O)N2CCN(c3ncccn3)CC2)cc1 for me?
Reply text: 0.353

Inquiry: Can you look up the measured composite z-score of COc1ccc([Si](C)(C)[C@H]2[C@H](CC(=O)N(CCO)Cc3ccccc3)O[C@@]3(C(=O)N(Cc4cccc(N5C(=O)COc6ccccc65)c4)c4ccccc43)[C@@H]2C)cc1 for me?
Reply text: 0.389

Inquiry: Can you look up the measured composite z-score of C[C@@H](OCc1ccccc1)C1NC(=O)[C@@]23C(=O)N[C@@H](Cc4ccccc4)C2[C@H](C)[C@@]2(C)O[C@H]2C3/C=C/C/C=C\CNC(=O)[C@@H]2CCCN2C1=O (stereo partly drawn) for me?
Reply text: -0.247

Inquiry: Can you look up the measured composite z-score of CC(C)C(=C=CC[C@@H](O)c1ccc(CO)o1)CCO for me?
Reply text: 0.0954

Inquiry: Can you look up the measured composite z-score of COc1ccc(CCNC(=O)[C@@]2(Sc3ccc(C)cc3)CC(=O)N(Cc3ccccc3)[C@@H]2c2ccc(CO)cc2I)cc1 for me?
Reply text: 0.0805

Inquiry: Can you look up the measured composite z-score of COCCCNC(=O)[C@@]1(CCS(=O)(=O)c2ccccc2)N=C(c2ccc(OCCCO)cc2)O[C@H]1c1ccccc1CN=[N+]=[N-] for me?
Reply text: 0.64

Inquiry: Can you look up the measured composite z-score of O=C(NCC(F)(F)F)[C@@H]1c2ccccc2C(=O)N(C2Cc3ccccc3C2)[C@H]1c1ccc(CO)cc1 for me?
Reply text: 0.109

Inquiry: Can you look up the measured composite z-score of CC(C)C(=C=CC[C@H](O)c1ccc(OCCO)cc1)C[C@H](O)COCc1ccccc1 for me?
Reply text: 0.217

Inquiry: Can you look up the measured composite z-score of O=C(O)[C@H]1C[C@H]2C(=O)N[C@@H](Cc3ccccc3)C(=O)N2[C@H]1c1ccc(O)cc1 for me?
Reply text: 0.586

Inquiry: Can you look up the measured composite z-score of CC(C)N1CC=CC23O[C@@H]4/C=C\CCCOC(=O)C4[C@H]2C(=O)N(CCCO)[C@@H]3C1=O (stereo partly drawn) for me?
Reply text: 0.0824

Inquiry: Can you look up the measured composite z-score of COc1ccc([Si](C)(C)[C@@H]2[C@@H](CC(=O)N3CCC[C@H]3CO)O[C@]3(C(=O)N(Cc4ccc(I)cc4)c4ccccc43)[C@H]2C)cc1 for me?
Reply text: 0.201

Inquiry: Can you look up the measured composite z-score of CCOC(=O)C[C@H]1[C@H](OC(=O)c2ccc(-c3ccccc3)cc2)[C@@H](NC(=O)C2CCCCC2)c2cc(OCCCO)ccc2N1C(=O)c1ccc2ccccc2n1 for me?
Reply text: 0.037

Inquiry: Can you look up the measured composite z-score of COC(=O)C(CC#Cc1ccc2c(c1)[C@]1(C(=O)N2)[C@H](C(N)=O)[C@H]2C(=O)O[C@H](c3ccccc3)[C@H](c3ccccc3)N2[C@@H]1c1ccc(O)cc1)C(=O)OC for me?
Reply text: -0.446

Inquiry: Can you look up the measured composite z-score of C=CCNC(=O)[C@@H]1[C@H]2C(=O)O[C@H](c3ccccc3)[C@H](c3ccccc3)N2[C@H](c2ccc(O)cc2)[C@@]12C(=O)Nc1ccccc12 for me?
Reply text: 0.955

Inquiry: Can you look up the measured composite z-score of C=C(COC)/C(=C/C[C@H](OC(C)=O)c1ccc(CO)o1)c1cnc2ccccc2c1 for me?
Reply text: 0.186

Inquiry: Can you look up the measured composite z-score of C=CCN1C(=O)[C@@]2(O[C@@H](CCn3cc(CCO)nn3)[C@H]([Si](C)(C)c3ccc(OC)cc3)[C@H]2C)c2cc(N3C(=O)c4cccc5cccc3c45)ccc21 for me?
Reply text: 0.473

Inquiry: Can you look up the measured composite z-score of NC(=O)NCC#Cc1ccc2c(c1)[C@]1(C(=O)N2)[C@H](c2ccc(OCCO)cc2)N2[C@H](c3ccccc3)[C@H](c3ccccc3)OC(=O)[C@H]2[C@@H]1C(=O)Nc1nc2ccccc2s1 for me?
Reply text: 0.339
